Origin of the recorded values: the supplement of paper PMC9112550

Tested on: Escherichia coli TOP10
Measurement protocol: shrunken log2 fold change of peptide-encoding DNA abundance (4.5 h post-induction vs induction); higher = less antimicrobial activity (less host growth inhibition)
Condition: time post-induction: 4.5 h; library: site-saturation at positions 5, 18, 19, 20
Reported shrunken log2 fold change values for a set of sequences

RRIRDRPPRLPRPRPRPIPIPRP: -0.0457
RRIRQRPPRLPRPRPRPYCVPRP: -0.00867
RRIRGRPPRLPRPRPRPHMAPRP: 0.271

What does the data say about its shrunken log2 fold change? Entry: `RRIRSRPPRLPRPRPRPQDLPRP` -0.0949

Entry `RRIRMRPPRLPRPRPRPITKPRP` please 0.0745

Now this one: `RRIRIRPPRLPRPRPRPTMIPRP` -0.224

Would you mind doing `RRIRMRPPRLPRPRPRPVTAPRP` as well? 0.57

How about `RRIRERPPRLPRPRPRPKFQPRP` ? -0.268

Same lookup for `RRIRLRPPRLPRPRPRPVWKPRP` , please. -0.0133

Quick one: `RRIRSRPPRLPRPRPRPDWHPRP` -0.195

Also `RRIRQRPPRLPRPRPRPIIVPRP` ? -0.0856

And what about the sequence `RRIRMRPPRLPRPRPRPWVSPRP` ? -0.0423

Follow-up item: `RRIRKRPPRLPRPRPRPYCHPRP` -0.469

Try this sequence next: `RRIRARPPRLPRPRPRPYWWPRP` -0.195

Same question for `RRIRQRPPRLPRPRPRPSCNPRP` please. -0.683

###

# Lookup of reported shrunken log2 fold change keyed by entry
Tested on: Escherichia coli TOP10
Measurement protocol: shrunken log2 fold change of peptide-encoding DNA abundance (4.5 h post-induction vs induction); higher = less antimicrobial activity (less host growth inhibition)
Condition: time post-induction: 4.5 h; library: site-saturation at positions 5, 18, 19, 20
Lab note: jot the number down without any unit.

Sample answers from the record:
RRIRTRPPRLPRPRPRPMPFPRP: -0.00604
RRIRFRPPRLPRPRPRPRAGPRP: 0.614
RRIRCRPPRLPRPRPRPIPMPRP: -0.108
RRIRRRPPRLPRPRPRPSVHPRP: -0.278
RRIRLRPPRLPRPRPRPRGQPRP: 0.533
RRIRGRPPRLPRPRPRPDKKPRP: 0.878
RRIRHRPPRLPRPRPRPHKVPRP: -0.299
RRIRVRPPRLPRPRPRPNWIPRP: -0.29
RRIRKRPPRLPRPRPRPWTRPRP: -0.0844
RRIRRRPPRLPRPRPRPIIVPRP: 0.0931

Form field: reported shrunken log2 fold change of `RRIRNRPPRLPRPRPRPVGDPRP` 0.0156

Moving on to `RRIRPRPPRLPRPRPRPPCHPRP` 0.0684

What do you have for `RRIRSRPPRLPRPRPRPCGFPRP` ? -0.0141

Then `RRIRRRPPRLPRPRPRPLSYPRP` ? -0.0226

Also, `RRIRIRPPRLPRPRPRPKRHPRP` please. -0.0187

Can you check `RRIRGRPPRLPRPRPRPVPFPRP` next? 0.289

How about `RRIRNRPPRLPRPRPRPRQIPRP` ? 0.151

Next: `RRIRHRPPRLPRPRPRPRWTPRP` 0.0902

// next record `RRIRYRPPRLPRPRPRPICRPRP` -0.226

`RRIRWRPPRLPRPRPRPWIQPRP` , same question. 0.0861

###

Documented shrunken log2 fold change across a set of sequences
System: Escherichia coli TOP10
Measurement protocol: shrunken log2 fold change of peptide-encoding DNA abundance (4.5 h post-induction vs induction); higher = less antimicrobial activity (less host growth inhibition)
Condition: time post-induction: 4.5 h; library: site-saturation at positions 5, 18, 19, 20

Examples from the recorded data:
RRIRHRPPRLPRPRPRPPIHPRP: -0.639
RRIRCRPPRLPRPRPRPNATPRP: 0.382
RRIRFRPPRLPRPRPRPKDHPRP: -0.179
RRIRHRPPRLPRPRPRPIQMPRP: -0.00723
RRIRPRPPRLPRPRPRPSNYPRP: -0.733
RRIRERPPRLPRPRPRPFMTPRP: -0.438

Okay, next one:
// returns reported shrunken log2 fold change for input `RRIRQRPPRLPRPRPRPRRTPRP` 0.655

###

Test system: Escherichia coli TOP10
Measurement protocol: shrunken log2 fold change of peptide-encoding DNA abundance (4.5 h post-induction vs induction); higher = less antimicrobial activity (less host growth inhibition)
Condition: time post-induction: 4.5 h; library: site-saturation at positions 5, 18, 19, 20
Outcome measure: shrunken log2 fold change
The answer should be a number; do not append a unit.

RRIRPRPPRLPRPRPRPTGHPRP: 0.0828

So what's the measured shrunken log2 fold change for this one? `RRIRERPPRLPRPRPRPTTDPRP` -0.148

Also `RRIRDRPPRLPRPRPRPPNDPRP` , if possible. 0.14

# iterate: `RRIRFRPPRLPRPRPRPPPLPRP` 1.38

Next: `RRIRFRPPRLPRPRPRPATDPRP` -0.0766

Lookup `RRIRTRPPRLPRPRPRPNFTPRP` -0.0395

Can you check `RRIRERPPRLPRPRPRPMMRPRP` next? 0.169

Item: `RRIRKRPPRLPRPRPRPEAEPRP` 3.31

# iterate: `RRIRWRPPRLPRPRPRPMPNPRP` -0.0767

Try the sequence `RRIRFRPPRLPRPRPRPFNPPRP` -0.733

Also `RRIRSRPPRLPRPRPRPGIPPRP` , if possible. -0.00461

Please give the result for `RRIRSRPPRLPRPRPRPDHHPRP` too. -0.868

###

System: Escherichia coli TOP10
Measurement protocol: shrunken log2 fold change of peptide-encoding DNA abundance (4.5 h post-induction vs induction); higher = less antimicrobial activity (less host growth inhibition)
Condition: time post-induction: 4.5 h; library: site-saturation at positions 5, 18, 19, 20
Outcome measure: shrunken log2 fold change
Lab note: record just the number, no unit beside it.

Use the examples below as a reference point.
RRIRSRPPRLPRPRPRPDDDPRP: -0.0062
RRIRNRPPRLPRPRPRPGIHPRP: 0.0285
RRIRIRPPRLPRPRPRPGGYPRP: -0.16

Returns the measured shrunken log2 fold change for the input sequence. Input: `RRIRHRPPRLPRPRPRPEEPPRP` 0.0179

What do you have for `RRIRGRPPRLPRPRPRPRMMPRP` ? 0.882

What about `RRIRVRPPRLPRPRPRPIMRPRP` ? 0.0562

Entry to check: `RRIRMRPPRLPRPRPRPLWCPRP` 0.147

Same read-out for `RRIRKRPPRLPRPRPRPNHTPRP` ? -0.213

###

Test system: Escherichia coli TOP10
Measurement protocol: shrunken log2 fold change of peptide-encoding DNA abundance (4.5 h post-induction vs induction); higher = less antimicrobial activity (less host growth inhibition)
Condition: time post-induction: 4.5 h; library: site-saturation at positions 5, 18, 19, 20
Outcome measure: shrunken log2 fold change
In your answer, state the number alone without any accompanying words.

RRIRPRPPRLPRPRPRPTDQPRP: 0.399

# next sequence below
Field request: shrunken log2 fold change | item: `RRIRKRPPRLPRPRPRPQVPPRP` 0.325

###

Test system: Escherichia coli TOP10
Measurement protocol: shrunken log2 fold change of peptide-encoding DNA abundance (4.5 h post-induction vs induction); higher = less antimicrobial activity (less host growth inhibition)
Condition: time post-induction: 4.5 h; library: site-saturation at positions 5, 18, 19, 20
We begin with a simple list: items and their reported shrunken log2 fold change.
// keep it numeric: no unit symbol after the value

Consider the reported shrunken log2 fold change for these sequences:
RRIRGRPPRLPRPRPRPKVHPRP: 0.598
RRIRTRPPRLPRPRPRPQDPPRP: 0.167
RRIRLRPPRLPRPRPRPCSWPRP: -0.0168
RRIRARPPRLPRPRPRPVSFPRP: 0.368
RRIRVRPPRLPRPRPRPEGWPRP: 0.762
RRIRCRPPRLPRPRPRPMKAPRP: -0.173

Consider the sequence `RRIRGRPPRLPRPRPRPNDKPRP` and give its measured shrunken log2 fold change. 0.342

Thanks! And `RRIRSRPPRLPRPRPRPCDKPRP` ? -0.324

###

Tested on: Escherichia coli TOP10;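 note: peptides expressed intracellularly from a pBAD plasmid library in pooled LB shake-flask culture, induced with 0.3% L-arabinose, DNA abundance read by NGS, three biological replicates, DESeq2 with apeglm shrinkage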
Measurement protocol: shrunken log2 fold change of peptide-encoding DNA abundance (4.5 h post-induction vs induction); higher = less antimicrobial activity (less host growth inhibition)
Condition: time post-induction: 4.5 h; library: site-saturation at positions 5, 18, 19, 20
Outcome measure: shrunken log2 fold change
Give only the figure.

Example entries begin here.
RRIRMRPPRLPRPRPRPAWMPRP: 0.189
RRIRCRPPRLPRPRPRPHVHPRP: -0.245
RRIRYRPPRLPRPRPRPGSFPRP: -0.0331
RRIRTRPPRLPRPRPRPELEPRP: 0.0188
RRIRNRPPRLPRPRPRPRFWPRP: 0.395

Fill in: shrunken log2 fold change of `RRIRQRPPRLPRPRPRPDMKPRP` is ___ 0.26

Follow-up item: `RRIRQRPPRLPRPRPRPQMWPRP` 0.0113

Subsequent entry: `RRIRKRPPRLPRPRPRPQYIPRP` 0.102

And what about the sequence `RRIRWRPPRLPRPRPRPEVDPRP` ? 1.87

Now the same for `RRIRSRPPRLPRPRPRPSTQPRP` 2.48
